measuredOn: SMARCA2 (Homo sapiens, UniProt P51531)
Construct: Determination of SMARCA2 and SMARCA4 Degradation in VCaP Cells by Western Blot; endogenous in cells; host or cells: VCaP (ATCC CRL-2876)
Sequence (P51531 whole entry): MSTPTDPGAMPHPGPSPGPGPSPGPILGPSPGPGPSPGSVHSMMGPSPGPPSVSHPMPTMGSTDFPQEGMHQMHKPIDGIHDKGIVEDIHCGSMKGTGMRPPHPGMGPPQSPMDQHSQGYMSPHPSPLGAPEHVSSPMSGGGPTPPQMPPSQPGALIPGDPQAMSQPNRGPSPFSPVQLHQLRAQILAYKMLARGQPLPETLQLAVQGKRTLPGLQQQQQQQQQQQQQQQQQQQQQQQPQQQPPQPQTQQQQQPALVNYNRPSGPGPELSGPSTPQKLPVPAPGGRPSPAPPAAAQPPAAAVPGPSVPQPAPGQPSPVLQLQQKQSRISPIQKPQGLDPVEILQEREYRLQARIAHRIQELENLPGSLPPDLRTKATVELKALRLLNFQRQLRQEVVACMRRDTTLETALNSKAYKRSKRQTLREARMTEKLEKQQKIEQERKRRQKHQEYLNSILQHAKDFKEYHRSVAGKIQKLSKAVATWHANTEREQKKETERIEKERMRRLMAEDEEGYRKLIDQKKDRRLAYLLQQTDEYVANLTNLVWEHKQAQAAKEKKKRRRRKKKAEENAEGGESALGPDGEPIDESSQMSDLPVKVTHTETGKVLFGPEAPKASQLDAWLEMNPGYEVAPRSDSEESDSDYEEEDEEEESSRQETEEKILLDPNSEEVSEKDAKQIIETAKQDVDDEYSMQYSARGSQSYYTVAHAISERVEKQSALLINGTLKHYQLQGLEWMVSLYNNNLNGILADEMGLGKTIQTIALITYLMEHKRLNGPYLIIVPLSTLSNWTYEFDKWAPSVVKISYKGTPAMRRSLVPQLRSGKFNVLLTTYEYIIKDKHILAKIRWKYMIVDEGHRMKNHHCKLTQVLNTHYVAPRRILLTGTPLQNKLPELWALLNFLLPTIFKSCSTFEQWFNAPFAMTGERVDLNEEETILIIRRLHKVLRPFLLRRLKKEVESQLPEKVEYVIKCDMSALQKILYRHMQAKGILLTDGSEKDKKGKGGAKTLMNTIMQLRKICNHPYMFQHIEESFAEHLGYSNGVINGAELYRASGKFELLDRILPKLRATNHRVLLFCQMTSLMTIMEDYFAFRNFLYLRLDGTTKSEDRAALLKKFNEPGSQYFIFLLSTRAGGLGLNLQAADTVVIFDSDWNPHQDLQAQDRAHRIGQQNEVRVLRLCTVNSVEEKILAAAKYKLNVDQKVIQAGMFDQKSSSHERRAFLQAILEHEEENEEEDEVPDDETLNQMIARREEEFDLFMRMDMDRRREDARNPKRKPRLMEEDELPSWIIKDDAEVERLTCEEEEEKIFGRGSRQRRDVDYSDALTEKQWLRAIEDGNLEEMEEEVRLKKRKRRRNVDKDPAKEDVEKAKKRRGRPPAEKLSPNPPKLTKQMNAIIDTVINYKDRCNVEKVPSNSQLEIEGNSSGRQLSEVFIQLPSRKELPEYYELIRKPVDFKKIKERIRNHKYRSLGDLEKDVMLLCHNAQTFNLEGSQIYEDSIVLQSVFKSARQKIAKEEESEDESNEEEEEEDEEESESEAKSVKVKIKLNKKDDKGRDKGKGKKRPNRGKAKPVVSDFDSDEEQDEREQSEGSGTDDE
procedureText: SMARCA2 degradation in VCaP cells by Western blot
Assay type: cell-based
testContext: 16 hours

- compound: "Cc1ncsc1-c1ccc([C@H](C)NC(=O)[C@@H]2C[C@@H](O)CN2C(=O)[C@@H](NC(=O)CN2CCC(O)(c3ccc(-c4cnnc(-c5ccccc5O)c4)cc3)CC2)C(C)(C)C)cc1 [Compound 32]"
  measuredOn: "SMARCA2 (Homo sapiens, UniProt P51531)"
  Percent degradation (at 100 nM) SMARCA2 [%]: 57
- compound: "Cc1ncsc1-c1ccc([C@H](C)NC(=O)[C@@H]2C[C@@H](O)CN2C(=O)[C@@H](NC(=O)CN2CCN(c3ccc(-c4cnnc(-c5ccccc5C(F)F)c4)cc3)CC2)C(C)(C)C)cc1 [Compound 37]"
  measuredOn: "SMARCA2 (Homo sapiens, UniProt P51531)"
  Percent degradation (at 100 nM) SMARCA2 [%]: 45
- compound: "Cc1ncsc1-c1ccc([C@H](C)NC(=O)[C@@H]2C[C@@H](O)CN2C(=O)[C@@H](NC(=O)CN2C3CCC2CC(c2ccc(-c4cnnc(-c5ccccc5O)c4)cc2)C3)C(C)(C)C)cc1 (stereo partly shown) [Compound 25]"
  measuredOn: "SMARCA2 (Homo sapiens, UniProt P51531)"
  Percent degradation (at 100 nM) SMARCA2 [%]: 75
- compound: "Cc1ncsc1-c1ccc([C@H](C)NC(=O)[C@@H]2C[C@@H](O)CN2C(=O)[C@@H](NC(=O)CCCCNc2ccc(-c3cnnc(-c4ccccc4O)c3)cc2)C(C)(C)C)cc1 [Compound 36]"
  measuredOn: "SMARCA2 (Homo sapiens, UniProt P51531)"
  Percent degradation (at 100 nM) SMARCA2 [%]: 90
- compound: "Cc1ncsc1-c1ccc([C@H](C)NC(=O)[C@@H]2C[C@@H](O)CN2C(=O)[C@@H](NC(=O)CN2CCN(c3ccc(-c4cnnc(-c5cccc6cc[nH]c56)c4)cc3)CC2)C(C)(C)C)cc1 [Compound 39]"
  measuredOn: "SMARCA2 (Homo sapiens, UniProt P51531)"
  Percent degradation (at 100 nM) SMARCA2 [%]: 46
- compound: "Cc1ncsc1-c1ccc([C@H](C)NC(=O)[C@@H]2C[C@@H](O)CN2C(=O)[C@@H](NC(=O)CN2CCN(c3ccc(-c4cnnc(Cl)c4)cc3)CC2)C(C)(C)C)cc1 [Compound 3]"
  measuredOn: "SMARCA2 (Homo sapiens, UniProt P51531)"
  Percent degradation (at 100 nM) SMARCA2 [%]: 20
- compound: "Cc1ncsc1-c1ccc([C@H](C)NC(=O)[C@@H]2C[C@@H](O)CN2C(=O)[C@@H](NC(=O)C2CCC(c3ccc(-c4cnnc(-c5ccccc5O)c4)cc3)CC2)C(C)(C)C)cc1 (stereo partly shown) [Compound 18]"
  measuredOn: "SMARCA2 (Homo sapiens, UniProt P51531)"
  Percent degradation (at 100 nM) SMARCA2 [%]: 95
- compound: "Cc1ncsc1-c1ccc([C@H](C)NC(=O)[C@@H]2C[C@@H](O)CN2C(=O)C(c2cc(OCCOc3ccc(-c4cnnc(-c5ccccc5O)c4)cc3)no2)C(C)C)cc1 (mixture of isomers) [Compound 42]"
  measuredOn: "SMARCA2 (Homo sapiens, UniProt P51531)"
  Percent degradation (at 100 nM) SMARCA2 [%]: 57
- compound: "Cc1ncsc1-c1ccc([C@H](C)NC(=O)[C@@H]2C[C@@H](O)CN2C(=O)[C@@H](NC(=O)C(C)N2CCN(c3ccc(-c4cnnc(-c5ccccc5O)c4)cc3)CC2)C(C)(C)C)cc1 (single isomer, unassigned) [Compound 29]"
  measuredOn: "SMARCA2 (Homo sapiens, UniProt P51531)"
  Percent degradation (at 100 nM) SMARCA2 [%]: 40
- compound: "Cc1ncsc1-c1ccc([C@H](C)NC(=O)[C@@H]2C[C@@H](O)CN2C(=O)[C@@H](NC(=O)CN2CCC(c3ccc(-c4cnnc(-c5ccccc5O)c4)cc3)CC2)C(C)(C)C)cc1 [Compound 11]"
  measuredOn: "SMARCA2 (Homo sapiens, UniProt P51531)"
  Percent degradation (at 100 nM) SMARCA2 [%]: 91
